# assay-overview: in vitro
# test-context: human
parameter-measured: CC50 at 2 days

Ask | Look at this molecule and give its reported CC50 at 2 days. CCOC(=O)c1ccc(OCCC2CCN(c3ccc(C)nn3)CC2)cc1 [Pirodavir, reference compound]
Reply | > 10 µM

====

# Ki annotations
# target-under-test: rhinovirus 3C protease, HRV-89 (Human rhinovirus A serotype 89, UniProt P07210)
# Construct: Recombinant rhinovirus 3C proteases
# Sequence (P07210 1522-1704): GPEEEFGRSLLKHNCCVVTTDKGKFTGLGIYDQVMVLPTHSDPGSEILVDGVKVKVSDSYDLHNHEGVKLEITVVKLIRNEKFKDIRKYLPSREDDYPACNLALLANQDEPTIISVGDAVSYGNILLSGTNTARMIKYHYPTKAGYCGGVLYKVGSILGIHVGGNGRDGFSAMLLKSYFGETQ
# assay-overview: Inhibition of rhinovirus 3C protease (FRET assay), serotype 89
# test-context: HRV-89 3C protease
Field: numeric (µM). Do not append units.

Worked examples, 3 compounds total:
>>> print(df.to_string())
                           molecular_string  parameter_measured  reported_result
0  C#CC(=O)[C@H](CNC(C)=O)NC(=O)[C@H](Cc1ccccc1)NC(=O)[C@H](CC(C)C)NC(=O)OCc1ccccc1                  Ki             0.76
1  COCC(=O)[C@H](CNC(C)=O)NC(=O)[C@H](Cc1ccccc1)NC(=O)[C@H](CC(C)C)NC(=O)OCc1ccccc1                  Ki             20.6
2  CC(=O)NC[C@H](NC(=O)[C@H](Cc1ccccc1)NC(=O)[C@H](CC(C)C)NC(=O)OCc1ccccc1)C(=O)c1nc2ccccc2s1                  Ki             0.48

As a next step, examine the compound that follows.
Ask | Look at this compound and give its reported Ki. CC(=O)NC[C@H](NC(=O)[C@H](Cc1ccccc1)NC(=O)[C@H](CC(C)C)NC(=O)OCc1ccccc1)C(=O)COCCc1ccccc1
Reply | 14

====

# assay-overview: in vitro
# test-context: human, mock-infected H1-HeLa cells
# CC50 at 2 days annotations
Field: numeric (µM). Do not append units.

Worked examples, 5 compounds total:
compound	CC50 at 2 days, µM
CC(=O)NC[C@H](NC(=O)[C@H](Cc1ccccc1)NC(=O)[C@H](CC(C)C)NC(=O)OCc1ccccc1)C(=O)COCCc1ccccc1 [Compound 18]	20
CC(C)C[C@H](NC(=O)OCc1ccccc1)C(=O)N[C@@H](Cc1ccccc1)C(=O)N[C@@H](C[C@@H]1CCNC1=O)C(=O)c1nccs1 [Compound 22]	240
CC(=O)NC[C@H](NC(=O)[C@H](Cc1ccccc1)NC(=O)[C@H](CC(C)C)NC(=O)OCc1ccccc1)C(=O)c1nccs1 [Compound 13]	56
Cc1cc(C(=O)N[C@H](C(=O)N[C@@H](Cc2ccc(F)cc2)C(=O)N[C@@H](C[C@@H]2CCNC2=O)C(=O)c2nc3ccccc3s2)C(C)C)no1 [Compound 28]	251
CC(=O)NC[C@H](NC(=O)[C@H](Cc1ccccc1)NC(=O)[C@H](CC(C)C)NC(=O)OCc1ccccc1)C(=O)COC(=O)c1c(C)cc(C)cc1C [Compound 3]	25

As a next step, examine the compound that follows.
Ask | Look at this compound and give its reported CC50 at 2 days. CC(=O)NC[C@H](NC(=O)[C@H](Cc1ccccc1)NC(=O)[C@H](CC(C)C)NC(=O)OCc1ccccc1)C(=O)c1nc2ccccc2s1 [Compound 9]
Reply | 25

====

# assay-overview: in vitro
# test-context: human, mock-infected H1-HeLa cells
parameter-measured: CC50 at 2 days

Worked examples, 5 molecules total:
molecule	CC50 at 2 days
C#CC(=O)[C@H](CNC(C)=O)NC(=O)[C@H](Cc1ccccc1)NC(=O)[C@H](CNC(C)=O)NC(=O)OCc1ccccc1	> 100 µM
CC(C)C[C@H](NC(=O)OCc1ccccc1)C(=O)N[C@@H](Cc1ccccc1)C(=O)N[C@@H](CCC(N)=O)C(=O)c1nc2ccccc2s1	> 100 µM
COCC#CC(=O)[C@H](CNC(C)=O)NC(=O)[C@H](Cc1ccccc1)NC(=O)[C@H](CC(C)C)NC(=O)OCc1ccccc1	> 100 µM
CC(C)C[C@H](NC(=O)OCc1ccccc1)C(=O)N[C@@H](Cc1ccccc1)C(=O)N[C@@H](C[C@@H]1CCNC1=O)C(=O)c1nc2ccccc2s1	> 320 µM
C=CC(=O)[C@H](CNC(C)=O)NC(=O)[C@H](Cc1ccccc1)NC(=O)[C@H](CC(C)C)NC(=O)OCc1ccccc1	> 100 µM

As a next step, examine the molecule that follows.
Ask | Look at this molecule and give its reported CC50 at 2 days. CC(=O)[C@H](C[C@@H]1CCNC1=O)NC(=O)[C@H](Cc1ccccc1)NC(=O)[C@H](CC(C)C)NC(=O)OCc1ccccc1 [Compound 24, Cbz-L-Leu-L-Phe-L-[(S)-Pyrrol-Ala]-CH3]
Reply | > 10 µM

Provenance of the data: patent US6534530B1
